Target: T1, 4H1710-bH
T1 chain: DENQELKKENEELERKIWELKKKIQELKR
Assay: two-hybrid library CCNG1;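 further: natural log of median RNA to DNA barcode read ratio; higher means stronger binding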
quantity_kind: interaction score

Examples from the recorded data:
[
  {
    "binder": "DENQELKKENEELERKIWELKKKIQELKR [4H1710-bH]",
    "interaction score": 0.661
  },
  {
    "binder": "DENQELEKKIEELKREIWELKKKNQELER [4H1359-bH]",
    "interaction score": -0.389
  },
  {
    "binder": "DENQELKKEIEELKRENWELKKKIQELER [4H1629-bH]",
    "interaction score": -2.67
  },
  {
    "binder": "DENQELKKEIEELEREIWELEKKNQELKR [4H1544-bH]",
    "interaction score": 0.154
  },
  {
    "binder": "DENQELEKKIEELERKNWELKKEIQELKR [4H1338-bH]",
    "interaction score": -0.178
  }
]

I = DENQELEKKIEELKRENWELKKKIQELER [4H1373-bH]
II = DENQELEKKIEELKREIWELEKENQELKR [4H1348-bH]
III = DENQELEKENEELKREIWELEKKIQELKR [4H1222-bH]
IV = DENQELEKKIEELKRKNWELEKEIQELER [4H1393-bH]
Q) Order by interaction score, ascending. Write the labels out in the order the request specifies.
A) I, IV, II, III
(I: -2.29, IV: -0.501, II: -0.0273, III: 2.16)

a = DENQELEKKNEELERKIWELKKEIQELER [4H1449-bH]
b = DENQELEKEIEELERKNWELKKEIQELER [4H1081-bH]
Q) Between the entries labelled a and b , which has a larger interaction score value on record? Give the label under which the chosen entry appears.
A) a
(a: -0.366, b: -2.01)

These measurements were taken from paper PMC10397247.
